Reference source: PubChem BioAssay (NCI)

test system: NCI/ADR-RES ovarian; assay: NCI tumour cell line growth inhibition, 48 h
Measured TGI accompanies every entry in the list below.
Give the quantity in µM, number only.

Challenge: Record request: TGI value, item "COC(=O)/C=C\C(C#N)(C#N)N=Cc1ccc(OC)cc1"
Response given: 9.09

Others:
Challenge: Record request: TGI value, item "Nc1nc(SCC(=O)c2ccc(Br)cc2)c2[nH]cnc2n1"
Response given: 93.6

###

tested on: ACHN renal; assay: NCI tumour cell line growth inhibition, 48 h
quantityName: GI50

Challenge: Record request: GI50 value, item "Nn1c(-c2ccc(Cl)cc2)nc2c(-c3ccc(Cl)cc3)nc3ccc(Cl)cc3c2c1=O"
Response given: 5.42 µM

Challenge: Record request: GI50 value, item "C[C@@H]1CCc2ncc(F)cc2[C@H]2CCCN2c2ccn3ncc(c3n2)C(=O)N1"
Response given: 65.9 µM

Challenge: Record request: GI50 value, item "COc1cc(-c2nn(-c3cccc(NC(=O)CCN4CCN(c5ccccc5)CC4)c3)cc2-c2ccncc2)ccc1Cl"
Response given: 2.67 µM

Others:
Challenge: Record request: GI50 value, item "NC(=O)/C(=C/n1cnc(-c2cc(C(F)(F)F)cc(C(F)(F)F)c2)n1)c1cncnc1"
Response given: 0.386 µM

Challenge: Record request: GI50 value, item "C=CC(=O)Nc1cc2c(Nc3ccc(F)c(Cl)c3)ncnc2cc1C#CC(C)(C)N1CCN(C)CC1"
Response given: 0.0779 µM

Challenge: Record request: GI50 value, item COc1cc2c3cc1Oc1c(OC)c(OC)cc4c1C(Cc1ccc(O)c(c1)Oc1ccc(cc1)CC3N(C)CC2)N(C)CC4 (stereo unspecified)
Response given: 12.7 µM

Challenge: Record request: GI50 value, item "COc1ccc(/C=C/C(=O)c2cc3c(N)c(C(=O)Nc4ccc(OC)cc4)sc3nc2C)cc1"
Response given: 0.397 µM

Challenge: Record request: GI50 value, item "COc1cc2c3c(n(CCCNCCCNCCCN)c(=O)c2cc1OC)-c1cc2c(cc1C3=O)OCO2"
Response given: 91.6 µM
